These data points were gathered from patent US20170101472A1.

Overview of reported kon across a group of binders:
- target-system: T1, recombinant human LAG3 expressed with a C-terminal mouse IgG2a mFc tag (human)
- T1 construct: Called dimeric; also called hLAG3-mFc; hLAG3 dimer
- T1 chain: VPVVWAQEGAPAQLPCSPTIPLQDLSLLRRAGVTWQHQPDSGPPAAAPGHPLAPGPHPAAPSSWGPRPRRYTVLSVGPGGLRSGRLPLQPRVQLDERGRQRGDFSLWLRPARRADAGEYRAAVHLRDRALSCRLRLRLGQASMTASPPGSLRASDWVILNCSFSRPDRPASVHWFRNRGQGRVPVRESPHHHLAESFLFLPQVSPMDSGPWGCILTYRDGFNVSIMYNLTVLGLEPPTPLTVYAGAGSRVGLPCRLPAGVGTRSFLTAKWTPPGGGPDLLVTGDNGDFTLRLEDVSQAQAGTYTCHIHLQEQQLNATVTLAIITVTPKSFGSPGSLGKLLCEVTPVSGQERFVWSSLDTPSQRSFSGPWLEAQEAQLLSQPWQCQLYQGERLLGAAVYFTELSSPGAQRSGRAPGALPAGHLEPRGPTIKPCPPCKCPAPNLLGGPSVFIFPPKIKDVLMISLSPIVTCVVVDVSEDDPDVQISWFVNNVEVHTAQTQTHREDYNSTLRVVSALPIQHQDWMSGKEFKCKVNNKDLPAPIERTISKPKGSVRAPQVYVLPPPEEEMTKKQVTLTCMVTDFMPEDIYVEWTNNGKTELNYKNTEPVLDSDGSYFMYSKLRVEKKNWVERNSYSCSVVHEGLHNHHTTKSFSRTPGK
- assay-remarks: SPR, mAb captured, 25 C
Give a bare numeral; the unit M⁻¹ s⁻¹ is implied.

Please review the following examples before continuing.
H4sH14813N (antibody, human IgG4 S228P, kappa, V domains shown, H4sH = modified human IgG4 Fc) VH: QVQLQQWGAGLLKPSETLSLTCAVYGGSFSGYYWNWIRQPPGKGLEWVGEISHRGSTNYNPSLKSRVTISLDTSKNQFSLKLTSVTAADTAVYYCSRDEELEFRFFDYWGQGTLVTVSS VL: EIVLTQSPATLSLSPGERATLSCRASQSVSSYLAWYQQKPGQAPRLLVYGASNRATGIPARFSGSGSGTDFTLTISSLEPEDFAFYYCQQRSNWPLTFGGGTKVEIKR : 1.8e+06
H4H17823P (antibody, human IgG4, V domains shown, H4H = human IgG4 Fc with S108P hinge mutation) VH: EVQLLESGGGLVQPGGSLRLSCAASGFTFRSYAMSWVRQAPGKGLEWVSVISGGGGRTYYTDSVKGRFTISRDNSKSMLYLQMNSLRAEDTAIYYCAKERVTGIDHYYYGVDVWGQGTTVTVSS VL: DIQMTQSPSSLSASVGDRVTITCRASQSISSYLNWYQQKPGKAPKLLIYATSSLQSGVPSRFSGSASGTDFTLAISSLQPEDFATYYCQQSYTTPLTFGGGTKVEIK : 1.26e+06

Now, please, on to the next binder.
# input Look up kon for this binder: H4H15479P (antibody, human IgG4, V domains shown) VH: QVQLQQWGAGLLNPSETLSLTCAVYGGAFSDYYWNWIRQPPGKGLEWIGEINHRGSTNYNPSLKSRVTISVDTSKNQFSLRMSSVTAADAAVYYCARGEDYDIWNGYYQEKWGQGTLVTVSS VL: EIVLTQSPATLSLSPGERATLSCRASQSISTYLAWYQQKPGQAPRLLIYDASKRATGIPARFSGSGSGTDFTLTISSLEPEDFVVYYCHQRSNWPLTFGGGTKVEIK
# output 2.3e+06
